Reported growth values are given for each entry in this list.
test system: UACC-62 melanoma; assay: NCI-60 one-dose screen, 48 h (100 = growth as untreated, 0 = no growth, -100 = all killed); conditions: 10 µM unless noted
This is part of a sample that, as a whole, favours compounds with a hit. Of some 83,000 tested, about 20% had one in any assay.
Parameter: growth (%)

[[record]]
compound = "CS(=O)(=O)c1ccc2c(c1)c1c(n2Cc2ccc(Cl)cc2)CCCC1"
result_units = "%"
experimental_result = 43.2

[[record]]
compound = "Cc1ccc(/C=C/c2nn3c(-c4ccco4)nnc3s2)cc1"
result_units = "%"
experimental_result = 90.7

[[record]]
compound = "COc1cc(/C=N/Nc2ccnc3cc(Cl)ccc23)cc(OC)c1O"
result_units = "%"
experimental_result = 101

[[record]]
compound = "CC1(C)CC[C@]2(C(=O)N3CCCN(CC#N)CC3)CC[C@]3(C)C(=CC[C@@H]4[C@@]5(C)CC[C@H](O)C(C)(C)[C@@H]5CC[C@]43C)[C@H]2C1"
result_units = "%"
experimental_result = 54.6

[[record]]
compound = "COc1cc(/C=C/C(=O)c2ccc(NC(=O)COc3cccc4cccnc34)cc2)cc(OC)c1OC"
result_units = "%"
experimental_result = 70.1

[[record]]
compound = "O=S(=O)(Nc1ccc(-c2nc(-c3cccc(O)c3)c(-c3ccnc(Br)c3)[nH]2)cc1)c1ccccc1"
result_units = "%"
experimental_result = 16.4

[[record]]
compound = "CCN(CC)Cc1c(-c2cccc(OC(F)(F)F)c2)[nH]c2ccc(N3CCCC3)cc2c1=O"
result_units = "%"
experimental_result = 82.7

[[record]]
compound = "Cc1cc(Cl)cc(NS(=O)(=O)c2ccc(-c3cnc(C4CC4)o3)cc2)c1"
result_units = "%"
experimental_result = 31.5

[[record]]
compound = "O=C(Cn1cc(CN2C(=O)c3ccc([N+](=O)[O-])cc3C2=O)nn1)Nc1ccccc1Br"
result_units = "%"
experimental_result = 90.7

[[record]]
compound = "C/C(=C(/C)C1CC1CCN(C(=O)c1ccc([N+](=O)[O-])cc1)S(=O)(=O)c1ccc(C)cc1)C1CCCCC1 (stereo not drawn)"
result_units = "%"
experimental_result = 79.7

[[record]]
compound = "CS(=O)c1nccc(-c2c(-c3ccc(F)c(OCc4ccccc4)c3)nc3sccn23)n1 (stereo not drawn)"
result_units = "%"
experimental_result = 93.6

[[record]]
compound = "O=S(=O)(NC1CC2CCC1C2)c1ccc2c(c1)C(=NO)c1cc(S(=O)(=O)NC3CC4CCC3C4)ccc1-2 (stereo not drawn)"
result_units = "%"
experimental_result = 71

[[record]]
compound = "COc1cc2c3c(n(CCCNC4CCC4)c(=O)c2cc1OC)-c1cc2c(cc1C3=O)OCO2"
result_units = "%"
experimental_result = 59.1

[[record]]
compound = "O=C1[C@H]2Cc3c([nH]c4ccccc34)[C@@H](c3ccc(Cl)cc3)N2C(=O)CN1C1CCN(Cc2c(Cl)cccc2Cl)CC1"
result_units = "%"
experimental_result = 81.8

[[record]]
compound = "O=C(O)CNS(=O)(=O)c1ccc(Oc2ccc(S(=O)(=O)NCC(=O)O)cc2)cc1"
result_units = "%"
experimental_result = 99

[[record]]
compound = "Cn1cc(-c2nnc(N)nc2-c2cn(C)c3ccc(F)cc23)c2cc(F)ccc21"
result_units = "%"
experimental_result = 94.6

[[record]]
compound = "O=C1/C(=C/c2ccccc2[N+](=O)[O-])Oc2ccc(O)cc21"
result_units = "%"
experimental_result = 37.1

[[record]]
compound = "COc1ccc(NC2=C(Cl)C(=O)C(C)=C(C)C2=O)cc1"
result_units = "%"
experimental_result = 91

